PROCEDURE SUMMARY: Toxicokinetic evaluation in rats
TEST CONDITIONS: male, Crl:CD(SD)IGS BR, rat, in vivo, po, 25 mg/kg/day, AUC0-24 h
MEASURED ATTRIBUTE: AUC(0-t) (ng·h/mL)

Clc1ccc([C@]23CNCC2C3)cc1Cl (single isomer, unassigned; (+))    17400

---

PROCEDURE SUMMARY: Toxicokinetic evaluation in rats
TEST CONDITIONS: male, Crl:CD(SD)IGS BR, rat, in vivo, po, 10 mg/kg/day, tmax
MEASURED ATTRIBUTE: Tmax

Clc1ccc([C@]23CNCC2C3)cc1Cl (single isomer, unassigned; (+))    2 h

---

PROCEDURE SUMMARY: Toxicokinetic evaluation in rats
TEST CONDITIONS: male, Crl:CD(SD)IGS BR (Sprague-Dawley), rat, in vivo, po, 10 mg/kg/day, AUC0-24 h
MEASURED ATTRIBUTE: AUC(0-t) (ng·h/mL)

Clc1ccc([C@]23CNCC2C3)cc1Cl (single isomer, unassigned; (+))    5940

---

PROCEDURE SUMMARY: Toxicokinetic evaluation in rats
TEST CONDITIONS: male, Crl:CD(SD)IGS BR, rat, in vivo, po, 25 mg/kg/day, tmax
MEASURED ATTRIBUTE: Tmax (h)

Clc1ccc([C@]23CNCC2C3)cc1Cl (single isomer, unassigned; (+))    2

---

PROCEDURE SUMMARY: Toxicokinetic evaluation in dogs
Assay type: in vivo
TEST CONDITIONS: female, beagle, dog, blood, po, 20 mg/kg/day, female dogs, 20 mg/kg/day oral, Day 0; read-out: AUC0-24 h
Experimental: Eighteen male and eighteen female beagle dogs were received from Ridglan Farms, Mt. Horeb, Wis. […] Each group consisted of four males and four females. […] The animals were observed twice daily for mortality and moribundity. […] Individual body weights were recorded weekly, beginning approximately two weeks prior to test article administration (study week-2). Mean body weights and mean body weight changes were calculated for each corresponding interval. […]
MEASURED ATTRIBUTE: AUC(0-t) (ng·h/mL)

Clc1ccc([C@]23CNCC2C3)cc1Cl (single isomer, unassigned; (+))    63600

---

PROCEDURE SUMMARY: Toxicokinetic evaluation in dogs
Format: in vivo
TEST CONDITIONS: female, beagle, dog, in vivo, po, 2 mg/kg/day, female dogs, 2 mg/kg/day oral, Day 0; read-out: AUC0-24 h
MEASURED ATTRIBUTE: AUC(0-t) (ng·h/mL)

Clc1ccc([C@]23CNCC2C3)cc1Cl (single isomer, unassigned; (+))    1470

---

PROCEDURE SUMMARY: Toxicokinetic evaluation in dogs
Assay type: in vivo
TEST CONDITIONS: male, beagle, dog, in vivo, po, 20 mg/kg/day, male dogs, 20 mg/kg/day oral, Day 88
MEASURED ATTRIBUTE: Cmax (ng/mL)

Clc1ccc([C@]23CNCC2C3)cc1Cl (single isomer, unassigned; (+))    7230

---

PROCEDURE SUMMARY: Toxicokinetic evaluation in dogs
Assay type: in vivo
TEST CONDITIONS: male, beagle, dog, in vivo, po, 6 mg/kg/day, male dogs, 6 mg/kg/day oral, Day 88
MEASURED ATTRIBUTE: Tmax (h)

Clc1ccc([C@]23CNCC2C3)cc1Cl (single isomer, unassigned; (+))    1

---

PROCEDURE SUMMARY: Toxicokinetic evaluation in dogs
Format: in vivo
TEST CONDITIONS: male, beagle, dog, in vivo, po, 20 mg/kg/day, male dogs, 20 mg/kg/day oral, Day 0
MEASURED ATTRIBUTE: Tmax (h)

Clc1ccc([C@]23CNCC2C3)cc1Cl (single isomer, unassigned; (+))    1

---

PROCEDURE SUMMARY: Toxicokinetic evaluation in dogs
Type: in vivo
TEST CONDITIONS: male, beagle, dog, blood, po, 2 mg/kg/day, male dogs, 2 mg/kg/day oral, Day 88; read-out: AUC0-24 h
MEASURED ATTRIBUTE: AUC(0-t) (ng·h/mL)

Clc1ccc([C@]23CNCC2C3)cc1Cl (single isomer, unassigned; (+))    2280

---

PROCEDURE SUMMARY: Toxicokinetic evaluation in dogs
Assay type: in vivo
TEST CONDITIONS: female, beagle, dog, in vivo, po, 2 mg/kg/day, female dogs, 2 mg/kg/day oral, Day 88
MEASURED ATTRIBUTE: Cmax (ng/mL)

Clc1ccc([C@]23CNCC2C3)cc1Cl (single isomer, unassigned; (+))    663

---

PROCEDURE SUMMARY: Toxicokinetic evaluation in dogs
Assay type: in vivo
TEST CONDITIONS: male, beagle, dog, in vivo, po, 6 mg/kg/day, male dogs, 6 mg/kg/day oral, Day 88
MEASURED ATTRIBUTE: Cmax (ng/mL)

Clc1ccc([C@]23CNCC2C3)cc1Cl (single isomer, unassigned; (+))    4140

---

PROCEDURE SUMMARY: Toxicokinetic evaluation in dogs
Type: in vivo
TEST CONDITIONS: male, beagle, dog, in vivo, po, 20 mg/kg/day, male dogs, 20 mg/kg/day oral, Day 88; read-out: AUC0-24 h
MEASURED ATTRIBUTE: AUC(0-t) (ng·h/mL)

Clc1ccc([C@]23CNCC2C3)cc1Cl (single isomer, unassigned; (+))    44000

---

PROCEDURE SUMMARY: Toxicokinetic evaluation in dogs
Type: in vivo
TEST CONDITIONS: female, beagle, dog, in vivo, po, 2 mg/kg/day, female dogs, 2 mg/kg/day oral, Day 88; read-out: AUC0-24 h
MEASURED ATTRIBUTE: AUC(0-t) (ng·h/mL)

Clc1ccc([C@]23CNCC2C3)cc1Cl (single isomer, unassigned; (+))    2150

---

PROCEDURE SUMMARY: Toxicokinetic evaluation in dogs
Type: in vivo
TEST CONDITIONS: male, beagle, dog, in vivo, po, 20 mg/kg/day, male dogs, 20 mg/kg/day oral, Day 0; read-out: AUC0-24 h
MEASURED ATTRIBUTE: AUC(0-t) (ng·h/mL)

Clc1ccc([C@]23CNCC2C3)cc1Cl (single isomer, unassigned; (+))    47800

---

PROCEDURE SUMMARY: Toxicokinetic evaluation in rats
TEST CONDITIONS: male, Crl:CD(SD)IGS BR, rat, in vivo, po, 10 mg/kg/day, AUC0-24 h
MEASURED ATTRIBUTE: AUC(0-t) (ng·h/mL)

Cl.Clc1ccc([C@@]23CNC[C@@H]2C3)cc1Cl (single isomer, unassigned)    8130

---

PROCEDURE SUMMARY: Toxicokinetic evaluation in rats
TEST CONDITIONS: female, Crl:CD(SD)IGS BR (Sprague-Dawley), rat, in vivo, po, 60 mg/kg/day, AUC0-24 h
MEASURED ATTRIBUTE: AUC(0-t) (ng·h/mL)

Clc1ccc([C@]23CNCC2C3)cc1Cl (single isomer, unassigned; (+))    54400

---

PROCEDURE SUMMARY: Toxicokinetic evaluation in rats
TEST CONDITIONS: female, Crl:CD(SD)IGS BR, rat, in vivo, po, 25 mg/kg/day, AUC0-24 h
MEASURED ATTRIBUTE: AUC(0-t) (ng·h/mL)

Clc1ccc([C@]23CNCC2C3)cc1Cl (single isomer, unassigned; (+))    31000

---

PROCEDURE SUMMARY: Toxicokinetic evaluation in dogs
Type: in vivo
TEST CONDITIONS: male, beagle, dog, in vivo, po, 20 mg/kg/day, male dogs, 20 mg/kg/day oral, Day 0
MEASURED ATTRIBUTE: Cmax (ng/mL)

Clc1ccc([C@]23CNCC2C3)cc1Cl (single isomer, unassigned; (+))    11400

---

PROCEDURE SUMMARY: Toxicokinetic evaluation in rats
TEST CONDITIONS: Crl:CD(SD)IGS BR (Sprague-Dawley), rat, in vivo; male rats, 10 mg/kg/day oral, Day 87; read-out: AUC0-24 h
Protocol: For toxicokinetic evaluation, all animals were observed twice daily for mortality and moribundity. Blood samples were collected from three animals/sex/group at 0 (pre-dose), 1, 2, 4, 8 and 24 hours after dose administration on study days 0 and 87. All toxicokinetic animals were euthanized and discarded following the final blood collection (study day 88).
MEASURED ATTRIBUTE: AUC(0-t)

Clc1ccc([C@]23CNCC2C3)cc1Cl (single isomer, unassigned; (+))    8.13 µg·h/mL

---

PROCEDURE SUMMARY: Toxicokinetic evaluation in dogs
Type: in vivo
TEST CONDITIONS: male, beagle, dog, in vivo, po, 20 mg/kg/day, male dogs, 20 mg/kg/day oral, Day 88
MEASURED ATTRIBUTE: Tmax (h)

Clc1ccc([C@]23CNCC2C3)cc1Cl (single isomer, unassigned; (+))    1
